Biological target: Signal transducer and activator of transcription 6 (Homo sapiens)
Sequence (P42226 whole entry): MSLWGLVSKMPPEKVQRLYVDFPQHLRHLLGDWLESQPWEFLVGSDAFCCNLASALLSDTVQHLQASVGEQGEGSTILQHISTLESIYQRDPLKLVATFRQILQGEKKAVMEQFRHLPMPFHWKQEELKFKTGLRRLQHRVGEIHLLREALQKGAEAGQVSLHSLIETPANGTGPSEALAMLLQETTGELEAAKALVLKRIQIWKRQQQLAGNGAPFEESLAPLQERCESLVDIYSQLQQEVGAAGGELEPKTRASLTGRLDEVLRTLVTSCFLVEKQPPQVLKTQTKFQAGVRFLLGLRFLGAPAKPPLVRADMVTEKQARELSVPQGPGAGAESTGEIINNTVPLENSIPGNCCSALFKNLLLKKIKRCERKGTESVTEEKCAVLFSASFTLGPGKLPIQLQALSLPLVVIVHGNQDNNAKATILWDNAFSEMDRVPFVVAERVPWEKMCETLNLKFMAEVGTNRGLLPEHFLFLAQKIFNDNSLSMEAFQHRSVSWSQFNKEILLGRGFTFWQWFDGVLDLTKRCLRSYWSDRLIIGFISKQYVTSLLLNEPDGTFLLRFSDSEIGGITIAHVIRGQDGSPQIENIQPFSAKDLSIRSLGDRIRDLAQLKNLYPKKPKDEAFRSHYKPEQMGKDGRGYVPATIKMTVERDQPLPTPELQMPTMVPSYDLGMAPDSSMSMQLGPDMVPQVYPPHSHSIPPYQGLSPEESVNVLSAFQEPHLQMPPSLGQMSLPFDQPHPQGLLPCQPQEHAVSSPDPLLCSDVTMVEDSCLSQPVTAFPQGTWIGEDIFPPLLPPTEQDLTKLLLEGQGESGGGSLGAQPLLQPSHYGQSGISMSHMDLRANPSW
Test: Inhibition of STAT6 activation in FW4 reporter cells
I'd appreciate it if you could supply IC50 values for the items below.
Use nM as the unit, but write only the number.

Input line: Short answer please: IC50, Signal transducer and activator of transcription 6 (Homo sapiens), entry `NC(=O)c1cnc(Nc2ccc(N3CCOCC3)cc2)nc1NCc1ccc(F)cc1`
Output line: 650

Input line: Short answer please: IC50, Signal transducer and activator of transcription 6 (Homo sapiens), entry `NC(=O)c1cnc(Nc2ccc(N3CCOCC3)cc2)nc1NCc1ccccc1N`
Output line: 310

Input line: Short answer please: IC50, Signal transducer and activator of transcription 6 (Homo sapiens), entry `NC(=O)c1cnc(Nc2ccc(N3CCOCC3)cc2)nc1NCc1ccccc1[N+](=O)[O-]`
Output line: 38

Input line: Short answer please: IC50, Signal transducer and activator of transcription 6 (Homo sapiens), entry `NC(=O)c1cnc(Nc2ccc(N3CCNCC3)cc2)nc1NCc1ccccc1`
Output line: 7

Input line: Short answer please: IC50, Signal transducer and activator of transcription 6 (Homo sapiens), entry `NC(=O)c1cnc(Nc2ccc(N3CCCC3)cc2)nc1NCc1ccccc1`
Output line: 650

Input line: Short answer please: IC50, Signal transducer and activator of transcription 6 (Homo sapiens), entry `NC(=O)c1cnc(Nc2ccc(N3CCOCC3)cc2)nc1NCc1c(F)cccc1F`
Output line: 2.2

Input line: Short answer please: IC50, Signal transducer and activator of transcription 6 (Homo sapiens), entry `NC(=O)c1cnc(Nc2ccc(N3CCCCC3)cc2)nc1NCc1ccccc1`
Output line: 120
